Source of measurements: PubChem BioAssay AID463173

System: Wild type
Test: S. aureus survival, RN4220 and DeltatarO strains – OD600, teichoic acid synthesis inhibitors, primary screen (AID 463173)
Settings: S. aureus RN4220 wild type/DeltatarO growth, OD600, 18 h, stronger effect = lower value, screened at 18.75 µg/mL (by protocol)
About 1,700 (3.3%) of roughly 52,000 compounds were called active. For the sample, actives were picked, then their nearest neighbours and some compounds at random.
Some molecules, each annotated with its measured survival.

>  <molecule>
COc1ccc(C(=O)CC2(O)C(=O)N(CCc3ccccc3)c3ccc(Br)cc32)cc1OC (stereo unspecified)

>  <survival [%]>
65

$$$$
>  <molecule>
Cc1ccc(Sc2c(C)nn(C(=O)c3ccc(Cl)cc3)c2C)cc1

>  <survival [%]>
2

$$$$
>  <molecule>
Cc1ccc(C)c(NC(=O)CSc2nnc(CNC(=O)c3ccccc3)n2-c2ccccc2)c1

>  <survival [%]>
63

$$$$
>  <molecule>
Cc1sc(-n2cccc2)c(C(C)NC(=O)Nc2cccc(C(F)(F)F)c2)c1C (stereo unspecified)

>  <survival [%]>
6

$$$$
>  <molecule>
CC(C)(C)c1ccc(S(=O)(=O)N2CCC(Oc3ccc(-n4cnnn4)cc3)CC2)cc1

>  <survival [%]>
81

$$$$
>  <molecule>
Cc1nn(C(=O)c2ccccc2)c(C)c1Sc1ccc(Cl)cc1

>  <survival [%]>
6

$$$$
>  <molecule>
COc1ccc2cc(CNc3ccc(C)cc3)c(=O)n(CC(=O)Nc3cccc(Cl)c3C)c2c1

>  <survival [%]>
73

$$$$
>  <molecule>
COC(=O)c1ccc([C@@H]2Nc3c(OC)ccc(C)c3[C@@H]3C=CC[C@@H]32)cc1

>  <survival [%]>
77

$$$$
>  <molecule>
Cc1nn(-c2ccc(F)cc2)c(-n2cccc2)c1C(=O)NCCc1ccc(Cl)cc1

>  <survival [%]>
54

$$$$
>  <molecule>
N#CCNC(=O)c1sc2ccccc2c1Cl

>  <survival [%]>
107

$$$$
>  <molecule>
Cc1nc2ccc(S(=O)(=O)NC(C(=O)NCc3ccc(Cl)cc3)C(C)C)cc2s1 (stereo unspecified)

>  <survival [%]>
133

$$$$
>  <molecule>
Cc1nn(C(=O)c2ccc(Cl)cc2)c(C)c1Sc1ccc(Cl)cc1

>  <survival [%]>
40

$$$$
>  <molecule>
CC(=O)c1ccc(NC(=O)c2cccc(NC(=O)N3CCSc4ncccc43)c2)cc1

>  <survival [%]>
55

$$$$
>  <molecule>
COC(=O)CSc1ncc2c(n1)-c1ccccc1N(Cc1cccc(F)c1)S2(=O)=O

>  <survival [%]>
70

$$$$
>  <molecule>
CC1CCCN(Cc2c(O)ccc3c(=O)c(-c4ccc(Cl)cc4)c(C(F)(F)F)oc23)C1 (stereo unspecified)

>  <survival [%]>
71

$$$$
>  <molecule>
CSc1ccc(CCNC(=O)c2cnn(-c3ccccc3)c2-n2cccc2)cc1

>  <survival [%]>
9

$$$$
>  <molecule>
O=C(CN1C(=O)CSC1=O)NC1CCCCC1

>  <survival [%]>
104

$$$$
>  <molecule>
Cc1c(Cl)cccc1NC(=O)Nc1nnc(N(C)C2CCCCC2)s1

>  <survival [%]>
111

$$$$
>  <molecule>
Cn1c(-c2ccc(NC(=O)c3ccccc3)cc2)n[nH]c1=S

>  <survival [%]>
113

$$$$
>  <molecule>
CC(C)Oc1ccc(CNC(=O)c2ccc(NC(=O)N3CCSc4ncccc43)cc2)cc1

>  <survival [%]>
1

$$$$
>  <molecule>
O=C(CC1(O)C(=O)N(CCc2ccccc2)c2ccc(Br)cc21)c1ccccc1O (stereo unspecified)

>  <survival [%]>
6

$$$$
>  <molecule>
Cc1nn(C(=O)COc2ccccc2)c(C)c1Sc1ccccc1

>  <survival [%]>
94

$$$$
>  <molecule>
CC1CCN(S(=O)(=O)c2ccc3c(ccn3CC(=O)NCc3ccccc3F)c2)CC1

>  <survival [%]>
53

$$$$
>  <molecule>
Cc1cc(C)cc(NC(=O)CCCn2c3ccccc3c(=O)c3ccccc32)c1

>  <survival [%]>
69

$$$$
>  <molecule>
Cc1ccc(NC(=O)c2ccc(NC(=O)N3CCSc4ncccc43)cc2)c(C)c1

>  <survival [%]>
82

$$$$
>  <molecule>
CCn1cc(C(=O)NCCc2ccccc2)c(=O)c2cc(S(=O)(=O)N3CCOCC3)ccc21

>  <survival [%]>
85

$$$$
>  <molecule>
CCc1cccc(NC(=O)c2ccc(NC(=O)N3CCSc4ncccc43)cc2)c1

>  <survival [%]>
-3

$$$$
>  <molecule>
O=C(Cn1ccc2cc(S(=O)(=O)N3CCCCCC3)ccc21)NCCc1ccccc1Cl

>  <survival [%]>
72

$$$$
>  <molecule>
CC(C)CC(=O)NCC(c1ccc2c(c1)OCO2)N1CCN(c2ccccc2)CC1 (stereo unspecified)

>  <survival [%]>
77

$$$$
>  <molecule>
Cc1ccc(-n2ncc(C(=O)NCc3ccccc3C)c2-n2cccc2)cc1

>  <survival [%]>
88

$$$$
>  <molecule>
C#CCN1C(=O)C(O)(CC(=O)c2ccc(OC)c(OC)c2)c2cc(Br)ccc21 (stereo unspecified)

>  <survival [%]>
111

$$$$
>  <molecule>
COc1ccc(CNC(=O)c2cnn(-c3ccc(F)cc3)c2-n2cccc2)cc1

>  <survival [%]>
113

$$$$
>  <molecule>
O=C(CC1(O)C(=O)N(CCc2ccccc2)c2ccc(Br)cc21)c1ccccc1 (stereo unspecified)

>  <survival [%]>
15

$$$$
>  <molecule>
O=C(CCn1ccc2cc(S(=O)(=O)N3CCCC3)ccc21)NCc1ccccc1Br

>  <survival [%]>
72

$$$$
>  <molecule>
Cc1ccc(NC(=O)c2c(C)nn(-c3ccccc3)c2-n2cccc2)c(Cl)c1

>  <survival [%]>
78

$$$$
>  <molecule>
Cc1ccc(Sc2c(C)nn(C(=O)COc3ccccc3)c2C)cc1

>  <survival [%]>
9

$$$$
